Hi there, I'd appreciate the recorded IC50 for every entry that follows.
# System: A549
# assay_procedure: Anticancer activity against human A549 cells by SRB assay
# Type: functional, cell-based

Solved entries:
[
  {
    "compound": "COc1cc(/C=C/C=O)ccc1O",
    "IC50": "21.2 µM"
  },
  {
    "compound": "COc1cc([C@@H](O)[C@@H](CO)Oc2ccc(CCCO)cc2OC)ccc1O",
    "IC50": "> 30 µM"
  },
  {
    "compound": "COc1cc([C@H]2Oc3c(OC)cc(CCCO)cc3[C@@H]2CO)ccc1O [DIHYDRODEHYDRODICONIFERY ALCOHOL]",
    "IC50": "22.4 µM"
  },
  {
    "compound": "COc1ccc(C[C@H]2CO[C@H](c3ccc(OC)c(OC)c3)[C@H]2CO)cc1OC",
    "IC50": "20.1 µM"
  },
  {
    "compound": "COc1cc(C(=O)O)ccc1O",
    "IC50": "> 30 µM"
  }
]

Fill in IC50 for each of the 6 compounds listed.
1. COc1cc(C(=O)CCO)cc(OC)c1O
2. COc1cc([C@@H]2OC[C@H]3[C@@H]2CO[C@H]3c2ccc(O)c(OC)c2)ccc1O [(-)-PINORESINOL]
3. COc1cc([C@@H]2OC[C@@H]3[C@H]2CO[C@H]3c2ccc(O[C@@H]3O[C@H](CO)[C@@H](O)[C@H](O)[C@H]3O)c(OC)c2)ccc1O
4. COc1cc([C@H]2c3c(cc(OC)c(O)c3OC)C[C@@H](CO)[C@@H]2CO)cc(OC)c1O
5. COc1cc(C[C@@H](CO)[C@H](CO)Cc2ccc(O)c(OC)c2)ccc1O [(+)-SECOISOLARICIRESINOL]
6. COc1cc(C(=O)CCO)ccc1O

Output line:
1. > 30 µM
2. > 30 µM
3. > 30 µM
4. > 30 µM
5. > 30 µM
6. > 30 µM

###

# System: XF498
# assay_procedure: Anticancer activity against human XF498 cells by SRB assay
# Assay type: functional, cell-based
Hi there, I'd appreciate the recorded IC50 for every entry that follows.
Give bare numbers, in µM.

Solved entries:
[
  {
    "compound": "COc1cc(C(=O)CCO)ccc1O",
    "unit_annotation": "µM",
    "data_value": 28.4
  },
  {
    "compound": "COc1cc(C(=O)CCO)cc(OC)c1O",
    "unit_annotation": "µM",
    "data_value": 24.3
  },
  {
    "compound": "COc1cc(C[C@@H](CO)[C@](O)(CO)Cc2ccc(O)c(OC)c2)ccc1O",
    "unit_annotation": "µM",
    "data_value": 27.6
  },
  {
    "compound": "COc1cc([C@H]2Oc3c(OC)cc(CCCO)cc3[C@@H]2CO)ccc1O [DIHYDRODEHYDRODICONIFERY ALCOHOL]",
    "unit_annotation": "µM",
    "data_value": 13.4
  },
  {
    "compound": "COc1cc(C[C@@H](CO)[C@H](CO)Cc2ccc(O)c(OC)c2)ccc1O [(+)-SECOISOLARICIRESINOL]",
    "unit_annotation": "µM",
    "data_value": 18.8
  }
]

Input line: Write down IC50 measured for item COc1cc([C@@H]2c3c(cc(OC)c(O)c3OC)C[C@H](CO)[C@H]2CO)cc(OC)c1O
Output line: 26.5

Recorded values, source ChEMBL document CHEMBL1759886.
